biological target: Thiamine transporter ThiT (Lactococcus lactis subsp. cremoris (strain MG1363), UniProt A2RI47, E84A); test: Binding affinity to Lactococcus lactis MG1363 N-terminal His8-tagged ThiT Glu84Ala mutant expressed in Lactococcus lactis NZ9000 by isothermal calorimetric titration method
observation type: pKd
Reminder that pKd means the negative base-10 logarithm of the concentration expressed in mol/L.

Task item: Item Cc1ncc(C[n+]2csc(CCO)c2C)c(N)n1 [THIAMINE ION] has what recorded pKd?
Reply: 5.44

====

biological target: Thiamine transporter ThiT (Lactococcus lactis subsp. cremoris (strain MG1363), UniProt A2RI47, E84Q); experiment: Binding affinity to Lactococcus lactis MG1363 N-terminal His8-tagged ThiT Glu84Gln mutant expressed in Lactococcus lactis NZ9000 by isothermal calorimetric titration method
observation type: Kd (µM)
Give the value in µM but do not write µM after it.

Task item: Item Cc1ncc(C[n+]2csc(CCO)c2C)c(N)n1 [THIAMINE ION] has what recorded Kd?
Reply: 13.6

====

molecular target: Thiamine transporter ThiT (Lactococcus lactis subsp. cremoris (strain MG1363), UniProt A2RI47, E84D); assay: Binding affinity to Lactococcus lactis MG1363 N-terminal His8-tagged ThiT Glu84Asp mutant expressed in Lactococcus lactis NZ9000 by isothermal calorimetric titration method
observation type: Kd

Task item: Item Cc1ncc(C[n+]2csc(CCO)c2C)c(N)n1 has what recorded Kd?
Reply: 2.21 nM

====

molecular target: Thiamine transporter ThiT (Lactococcus lactis subsp. cremoris (strain MG1363), UniProt A2RI47, H125N); experiment: Binding affinity to Lactococcus lactis MG1363 N-terminal His8-tagged ThiT His125Asn mutant expressed in Lactococcus lactis NZ9000 by isothermal calorimetric titration method
observation type: Kd (nM)
Give the value in nM but do not write nM after it.

Task item: Item Cc1ncc(C[n+]2csc(CCO)c2C)c(N)n1 [THIAMINE ION] has what recorded Kd?
Reply: 13.6

====

Target: Thiamine transporter ThiT (Lactococcus lactis subsp. cremoris (strain MG1363), UniProt A2RI47)
Sequence (A2RI47 whole entry): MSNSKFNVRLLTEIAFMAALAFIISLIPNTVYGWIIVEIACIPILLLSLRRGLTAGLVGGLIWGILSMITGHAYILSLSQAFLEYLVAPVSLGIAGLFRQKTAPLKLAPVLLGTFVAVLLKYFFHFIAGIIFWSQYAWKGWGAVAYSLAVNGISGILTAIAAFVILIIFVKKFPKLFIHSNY
Experiment: Binding affinity to wild-type Lactococcus lactis MG1363 N-terminal His8-tagged ThiT expressed in Lactococcus lactis NZ9000 incubated for 10 secs measured over 15 secs by fluorescence spectrophotometric method
Each record here notes measured pKd.
Reminder that pKd means the negative base-10 logarithm of the concentration expressed in mol/L.

Cc1ncc(Cc2csc(CCS[C@@H]3O[C@H](CO)[C@@H](O)[C@H](O)[C@H]3O)c2C)c(N)n1: 6.74
Cc1ncc(Cc2cccc(CCO)c2)c(N)n1: 6.58
Cc1ncc(Cc2csc(CNCc3ccccn3)c2C)c(N)n1: 7.01

Now for another entry.
Task item: Item Cc1ncc(Cc2csc(COP(=O)(O)OP(=O)(O)O)c2C)c(N)n1 has what recorded pKd?
Reply: 6.68

====

molecular target: Thiamine transporter ThiT (Lactococcus lactis subsp. cremoris (strain MG1363), UniProt A2RI47); assay: Binding affinity to wild-type Lactococcus lactis MG1363 N-terminal His8-tagged ThiT expressed in Lactococcus lactis NZ9000 incubated for 10 secs measured over 15 secs by fluorescence spectrophotometric method
Each record here notes measured Kd.
Give the value in nM but do not write nM after it.

Here's what some known entries look like.
Cc1ncc(Cc2csc(COCc3ccccc3)c2C)c(N)n1: 40.3
Cc1ncc(C[n+]2csc(CCO[P@](=O)(O)OP(=O)(O)O)c2C)c(N)n1: 1.6
Cc1ncc(C[n+]2cccc(CCO)c2C)c(N)n1: 0.18

Now for another entry.
Task item: Item Cc1ncc(Cc2csc(CNCC(c3ccccc3)c3ccccc3)c2C)c(N)n1 has what recorded Kd?
Reply: 168
